Target: AR protein (Homo sapiens, UniProt P10275, T878A)
Construct: degradation activity of the compounds disclosed in the present disclosure on AR protein in LNCaP cells; host or cells: LNCaP FGC
Sequence (P10275 1-920 T878A): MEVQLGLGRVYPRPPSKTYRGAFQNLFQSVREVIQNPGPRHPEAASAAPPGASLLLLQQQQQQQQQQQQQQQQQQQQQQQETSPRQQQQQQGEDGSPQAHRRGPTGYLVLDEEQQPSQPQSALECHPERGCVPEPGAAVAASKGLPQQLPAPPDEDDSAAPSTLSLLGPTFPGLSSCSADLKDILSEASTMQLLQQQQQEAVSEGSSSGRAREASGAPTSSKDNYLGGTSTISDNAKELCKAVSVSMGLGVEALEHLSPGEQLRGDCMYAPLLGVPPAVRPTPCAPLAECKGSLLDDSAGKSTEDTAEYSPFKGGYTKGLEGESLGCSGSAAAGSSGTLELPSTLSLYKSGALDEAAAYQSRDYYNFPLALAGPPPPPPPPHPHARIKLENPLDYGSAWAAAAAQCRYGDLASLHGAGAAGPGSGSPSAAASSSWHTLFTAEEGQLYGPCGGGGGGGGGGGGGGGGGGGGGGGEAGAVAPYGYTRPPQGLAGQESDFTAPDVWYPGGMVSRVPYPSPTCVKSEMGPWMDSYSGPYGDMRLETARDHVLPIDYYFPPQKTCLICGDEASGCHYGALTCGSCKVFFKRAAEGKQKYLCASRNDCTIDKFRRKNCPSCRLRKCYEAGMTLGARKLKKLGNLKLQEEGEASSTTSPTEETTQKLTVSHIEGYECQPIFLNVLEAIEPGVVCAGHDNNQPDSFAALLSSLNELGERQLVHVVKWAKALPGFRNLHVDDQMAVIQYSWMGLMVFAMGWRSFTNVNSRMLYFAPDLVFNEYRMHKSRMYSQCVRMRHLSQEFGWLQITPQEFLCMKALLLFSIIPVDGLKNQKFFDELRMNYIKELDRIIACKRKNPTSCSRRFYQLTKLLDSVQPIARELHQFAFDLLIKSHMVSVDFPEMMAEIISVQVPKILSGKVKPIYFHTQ
Test: Degradation of AR protein in LNCaP cells (Western blot)
Type: cell-based
Settings: LNCaP cells, compound 10 nM, 8 hours, Western blot grayscale, GAPDH internal reference; read-out: Degradation rates of the AR protein in LNCaP cells, 10 nM (%)
readout kind: inhibition at 0.01 µM (%)
// units = %; emit number, no label

Fill in inhibition at 0.01 µM for record N#Cc1ccc(O[C@H]2CC[C@H](NC(=O)c3ccc(N4CC5(CC(N6CCC7(CC6)COc6cc8c(cc67)C(=O)N(C6CCC(=O)NC6=O)C8=O)C5)C4)nn3)CC2)cc1Cl (some centres unmarked)
66

Fill in inhibition at 0.01 µM for record N#Cc1ccc(O[C@H]2CC[C@H](NC(=O)c3ccc(N4CCC(O)(CN5CCC6(CC5)COc5c6ccc6c5C(=O)N(C5CCC(=O)NC5=O)C6=O)CC4)nn3)CC2)cc1Cl (some centres unmarked)
47

Fill in inhibition at 0.01 µM for record COc1cc(OC2C(C)(C)C(NC(=O)c3ccc(N4CCC(CN5CCC6(CC5)COc5cc7c(cc56)C(=O)N(C5CCC(=O)NC5=O)C7=O)CC4)cc3)C2(C)C)ccc1C#N (centres unmarked)
36

Next:
Fill in inhibition at 0.01 µM for record COc1cc(O[C@H]2CC[C@H](NC(=O)c3ccc(N4CCC(C)(CN5CCC6(CC5)COc5c6ccc6c5C(=O)N(C5CCC(=O)NC5=O)C6=O)CC4)nn3)CC2)ccc1C#N (some centres unmarked)
12

Fill in inhibition at 0.01 µM for record N#Cc1ccc(O[C@H]2CC[C@H](NC(=O)c3ccc(N4CCC5(CC4)CC(N4CCC6(CC4)COc4c6ccc6c4CN(C4CCC(=O)NC4=O)C6=O)C5)nn3)CC2)cc1Cl (some centres unmarked)
79

Fill in inhibition at 0.01 µM for record N#Cc1ccc(O[C@H]2CC[C@H](NC(=O)c3ccc(N4CCC(N5CC(N6CCC7(CC6)COc6c7ccc7c6CN(C6CCC(=O)NC6=O)C7=O)C5)CC4)nn3)CC2)cc1Cl (some centres unmarked)
68

Fill in inhibition at 0.01 µM for record CC1(CN2CCC3(CC2)COc2c3ccc3c2CN(C2CCC(=O)NC2=O)C3=O)CCN(c2ccc(C(=O)N[C@H]3CC[C@H](Oc4ccc(C#N)c(Cl)c4)CC3)nc2)CC1 (some centres unmarked)
-16

Fill in inhibition at 0.01 µM for record COc1cc(O[C@H]2CC[C@H](NC(=O)c3cnc(N4CCC(CN5CC6(CCc7cc8c(cc7O6)C(=O)N(C6CCC(=O)NC6=O)C8=O)C5)(OC)CC4)nc3)CC2)ccc1C#N (some centres unmarked)
33

Fill in inhibition at 0.01 µM for record CCC1(CN2CCC3(CC2)COc2c3ccc3c2C(=O)N(C2CCC(=O)NC2=O)C3=O)CCN(c2ccc(C(=O)N[C@H]3CC[C@H](Oc4ccc(C#N)c(Cl)c4)CC3)nn2)CC1 (some centres unmarked)
-5

Fill in inhibition at 0.01 µM for record N#Cc1ccc(O[C@H]2CC[C@H](NC(=O)c3ccc(N4CCC5(CC(N6CCC7(CCc8cc9c(cc8O7)C(=O)N(C7CCC(=O)NC7=O)C9=O)CC6)C5)C4)nn3)CC2)cc1Cl (some centres unmarked)
17

Fill in inhibition at 0.01 µM for record N#Cc1ccc(O[C@H]2CC[C@H](NC(=O)c3ccc(N4CCN(C5CCC6(CCc7cc8c(cc7O6)C(=O)N(C6CCC(=O)NC6=O)C8=O)CC5)CC4)nn3)CC2)cc1Cl (some centres unmarked)
35

Fill in inhibition at 0.01 µM for record COc1cc(O[C@H]2C(C)(C)[C@H](NC(=O)c3ccc(N4CCC(CN5CCC6(CCc7cc8c(cc7O6)CN(C6CCC(=O)NC6=O)C8=O)CC5)CC4)cc3)C2(C)C)ccc1C#N (some centres unmarked)
53

Fill in inhibition at 0.01 µM for record COc1cc(O[C@H]2CC[C@H](NC(=O)c3ccc(N4CCC(CN5CCC6(CC5)COc5c6ccc6c5C(=O)N(C5CCC(=O)NC5=O)C6=O)(OC)CC4)nn3)CC2)ccc1C#N (some centres unmarked)
45

Fill in inhibition at 0.01 µM for record N#Cc1ccc(O[C@H]2CC[C@H](NC(=O)c3ccc(N4CCC5(CCC(N6CCC7(CC6)COc6cc8c(cc6C7)C(=O)N(C6CCC(=O)NC6=O)C8=O)CC5)C4)nn3)CC2)cc1Cl (some centres unmarked)
46
